system: 598228-144-R-J1-PDC complex spheroids, viability; experiment: Anticancer human tumor 598228-144-R-J1-PDC patient-derived serous endometrial adenocarcinoma cell line growth inhibition [CLK]; conditions: second compound 1 µM; first compound 10 µM; active compounds read low
quantityMeasured: viability, T/C (%)
Note: unit % is implicit; provide only the numeric part.

Query O=c1[nH]cc(F)c(=O)[nH]1 + CN1CCN(c2cc(C(=O)Nc3cc4cc(-c5cnn(C)c5)ccc4cn3)ccn2)CC1 yields viability, T/C of 5.93

Query COC1C=CCC(C)C(C)S(=O)(=O)NC(=O)c2ccc3c(c2)N(CC2CCC21)CC1(CCCc2cc(Cl)ccc21)CO3 (stereo not given) + CNC(=O)c1ccc(Nc2nc(OC3CCCC3)c3c(-c4ccc5nc(C)oc5c4)c[nH]c3n2)c(OC)c1 yields viability, T/C of 37.2

Query CC(CO)NC(=O)c1cc(-c2ccc(Cl)cc2)nn(-c2cnn(C)c2)c1=O (stereo not given) + CNC(=O)c1ccc(Nc2nc(OC3CCCC3)c3c(-c4ccc5nc(C)oc5c4)c[nH]c3n2)c(OC)c1 yields viability, T/C of 87.6

Query C=C(F)C(=O)N1CCN(c2nc(OCC3CCCN3C)nc3c2CCN(c2cccc4cccc(Cl)c24)C3)CC1CC#N (stereo not given) + CN1CCN(c2cc(C(=O)Nc3cc4cc(-c5cnn(C)c5)ccc4cn3)ccn2)CC1 yields viability, T/C of 0.11

Query COc1cccc2c1C(=O)c1c(O)c3c(c(O)c1C2=O)CC(O)(C(=O)CO)CC3OC1CC(N)C(O)C(C)O1 (stereo not given) + CNC(=O)c1ccc(Nc2nc(OC3CCCC3)c3c(-c4ccc5nc(C)oc5c4)c[nH]c3n2)c(OC)c1 yields viability, T/C of 0.82

Query CC(=O)O[C@H]1C(=O)[C@@]2(C)[C@H]([C@H](OC(=O)c3ccccc3)[C@]3(O)C[C@H](OC(=O)[C@H](O)[C@@H](NC(=O)c4ccccc4)c4ccccc4)C(C)=C1C3(C)C)[C@]1(OC(C)=O)CO[C@@H]1C[C@@H]2O + CN1CCN(c2cc(C(=O)Nc3cc4cc(-c5cnn(C)c5)ccc4cn3)ccn2)CC1 yields viability, T/C of 1.8

Query C=CC(=O)N1CCN(c2nc(=O)n(-c3c(C)ccnc3C(C)C)c3nc(-c4c(O)cccc4F)c(F)cc23)C(C)C1 (stereo not given) + CN1CCN(c2cc(C(=O)Nc3cc4cc(-c5cnn(C)c5)ccc4cn3)ccn2)CC1 yields viability, T/C of 1.47

Query Nc1ccn(C2OC(CO)C(O)C2(F)F)c(=O)n1 (stereo not given) + CN1CCN(c2cc(C(=O)Nc3cc4cc(-c5cnn(C)c5)ccc4cn3)ccn2)CC1 yields viability, T/C of 4.14

Query CC1COCCN1c1cc(C2(S(C)(=N)=O)CC2)nc(-c2ccnc3[nH]ccc23)n1 (stereo not given) + CN1CCN(c2cc(C(=O)Nc3cc4cc(-c5cnn(C)c5)ccc4cn3)ccn2)CC1 yields viability, T/C of 7.44

Query C=C(F)C(=O)N1CCN(c2nc(OCC3CCCN3C)nc3c2CCN(c2cccc4cccc(Cl)c24)C3)CC1CC#N (stereo not given) + CNC(=O)c1ccc(Nc2nc(OC3CCCC3)c3c(-c4ccc5nc(C)oc5c4)c[nH]c3n2)c(OC)c1 yields viability, T/C of 2.52

Query COc1cccc2c1C(=O)c1c(O)c3c(c(O)c1C2=O)CC(O)(C(=O)CO)CC3OC1CC(N)C(O)C(C)O1 (stereo not given) + CN1CCN(c2cc(C(=O)Nc3cc4cc(-c5cnn(C)c5)ccc4cn3)ccn2)CC1 yields viability, T/C of 2.88

Query CC(=O)O[C@H]1C(=O)[C@@]2(C)[C@H]([C@H](OC(=O)c3ccccc3)[C@]3(O)C[C@H](OC(=O)[C@H](O)[C@@H](NC(=O)c4ccccc4)c4ccccc4)C(C)=C1C3(C)C)[C@]1(OC(C)=O)CO[C@@H]1C[C@@H]2O + CNC(=O)c1ccc(Nc2nc(OC3CCCC3)c3c(-c4ccc5nc(C)oc5c4)c[nH]c3n2)c(OC)c1 yields viability, T/C of 86.8

Query O=C(c1cc(Cc2n[nH]c(=O)c3ccccc23)ccc1F)N1CCN(C(=O)C2CC2)CC1 + CN1CCN(c2cc(C(=O)Nc3cc4cc(-c5cnn(C)c5)ccc4cn3)ccn2)CC1 yields viability, T/C of 3.04

Query C#Cc1c(F)ccc2cc(O)cc(-c3ncc4c(N5CC6CCC(C5)N6)nc(OCC56CCCN5CC(F)C6)nc4c3F)c12 (stereo not given) + CN1CCN(c2cc(C(=O)Nc3cc4cc(-c5cnn(C)c5)ccc4cn3)ccn2)CC1 yields viability, T/C of 1.49

Query CC(Nc1ccc2c(c1)OCCn1cc(N3C(=O)OCC3C(F)F)nc1-2)C(N)=O (stereo not given) + CNC(=O)c1ccc(Nc2nc(OC3CCCC3)c3c(-c4ccc5nc(C)oc5c4)c[nH]c3n2)c(OC)c1 yields viability, T/C of 12.8

Query CC(CO)NC(=O)c1cc(-c2ccc(Cl)cc2)nn(-c2cnn(C)c2)c1=O (stereo not given) + CN1CCN(c2cc(C(=O)Nc3cc4cc(-c5cnn(C)c5)ccc4cn3)ccn2)CC1 yields viability, T/C of 1.94

Query C#Cc1c(F)ccc2cc(O)cc(-c3ncc4c(N5CC6CCC(C5)N6)nc(OCC56CCCN5CC(F)C6)nc4c3F)c12 (stereo not given) + CNC(=O)c1ccc(Nc2nc(OC3CCCC3)c3c(-c4ccc5nc(C)oc5c4)c[nH]c3n2)c(OC)c1 yields viability, T/C of 83.3

Query O=c1[nH]cc(F)c(=O)[nH]1 + CNC(=O)c1ccc(Nc2nc(OC3CCCC3)c3c(-c4ccc5nc(C)oc5c4)c[nH]c3n2)c(OC)c1 yields viability, T/C of 83.6

Query Nc1ccccc1NC(=O)c1ccc(CNC(=O)OCc2cccnc2)cc1 + CN1CCN(c2cc(C(=O)Nc3cc4cc(-c5cnn(C)c5)ccc4cn3)ccn2)CC1 yields viability, T/C of 0.57

Query COC1C=CCC(C)C(C)S(=O)(=O)NC(=O)c2ccc3c(c2)N(CC2CCC21)CC1(CCCc2cc(Cl)ccc21)CO3 (stereo not given) + CN1CCN(c2cc(C(=O)Nc3cc4cc(-c5cnn(C)c5)ccc4cn3)ccn2)CC1 yields viability, T/C of 4.93

----------
system: 598228-144-R-J1-PDC complex spheroids, viability; experiment: Anticancer human tumor 598228-144-R-J1-PDC cell line growth inhibition [CLK]; conditions: second compound 10 µM; first compound 1 µM; active means viability on the fitted dose curve at most 10% of control; inactive means the rest;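 also: spheroids exposed to compounds for seven days before readout; 100% = DMSO vehicle control wells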
I would appreciate it if you answered using one of these outcomes: 1 for active, 0 for inactive

[Q] For this compound, state the assay outcome: COC1C=CCC(C)C(C)S(=O)(=O)NC(=O)c2ccc3c(c2)N(CC2CCC21)CC1(CCCc2cc(Cl)ccc21)CO3 (stereo not given) + CN1CCN(c2cc(C(=O)Nc3cc4cc(-c5cnn(C)c5)ccc4cn3)ccn2)CC1
[A] 1

[Q] For this compound, state the assay outcome: CC(Nc1ccc2c(c1)OCCn1cc(N3C(=O)OCC3C(F)F)nc1-2)C(N)=O (stereo not given) + CNC(=O)c1ccc(Nc2nc(OC3CCCC3)c3c(-c4ccc5nc(C)oc5c4)c[nH]c3n2)c(OC)c1
[A] 0

[Q] For this compound, state the assay outcome: CCCS(=O)(=O)Nc1ccc(F)c(C(=O)c2c[nH]c3ncc(-c4ccc(Cl)cc4)cc23)c1F + CN1CCN(c2cc(C(=O)Nc3cc4cc(-c5cnn(C)c5)ccc4cn3)ccn2)CC1
[A] 1

[Q] For this compound, state the assay outcome: CC(=O)O[C@H]1C(=O)[C@@]2(C)[C@H]([C@H](OC(=O)c3ccccc3)[C@]3(O)C[C@H](OC(=O)[C@H](O)[C@@H](NC(=O)c4ccccc4)c4ccccc4)C(C)=C1C3(C)C)[C@]1(OC(C)=O)CO[C@@H]1C[C@@H]2O + CN1CCN(c2cc(C(=O)Nc3cc4cc(-c5cnn(C)c5)ccc4cn3)ccn2)CC1
[A] 1

[Q] For this compound, state the assay outcome: CC(Nc1ccc2c(c1)OCCn1cc(N3C(=O)OCC3C(F)F)nc1-2)C(N)=O (stereo not given) + CN1CCN(c2cc(C(=O)Nc3cc4cc(-c5cnn(C)c5)ccc4cn3)ccn2)CC1
[A] 1

----------
tested on: 598228-144-R-J1-PDC complex spheroids, viability; assay: Anticancer human tumor 598228-144-R-J1-PDC cell line growth inhibition [CLK]; conditions: second compound 0.0316 µM; first compound 3.16 µM; active compounds read low;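 also: spheroids exposed to compounds for seven days before readout; 100% = DMSO vehicle control wells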
quantityMeasured: viability, T/C (%)
Note: unit % is implicit; provide only the numeric part.

Query O=C(c1cc(Cc2n[nH]c(=O)c3ccccc23)ccc1F)N1CCN(C(=O)C2CC2)CC1 + CN1CCN(c2cc(C(=O)Nc3cc4cc(-c5cnn(C)c5)ccc4cn3)ccn2)CC1 yields viability, T/C of 116

Query COc1ccc([C@@H](O)c2cc(-c3ncnc4cc(N5CCOCC5)ccc34)c(F)cc2Cl)nn1 + CNC(=O)c1ccc(Nc2nc(OC3CCCC3)c3c(-c4ccc5nc(C)oc5c4)c[nH]c3n2)c(OC)c1 yields viability, T/C of 61.8

Query CC(=O)O[C@H]1C(=O)[C@@]2(C)[C@H]([C@H](OC(=O)c3ccccc3)[C@]3(O)C[C@H](OC(=O)[C@H](O)[C@@H](NC(=O)c4ccccc4)c4ccccc4)C(C)=C1C3(C)C)[C@]1(OC(C)=O)CO[C@@H]1C[C@@H]2O + CN1CCN(c2cc(C(=O)Nc3cc4cc(-c5cnn(C)c5)ccc4cn3)ccn2)CC1 yields viability, T/C of 33.1

Query C#Cc1c(F)ccc2cc(O)cc(-c3ncc4c(N5CC6CCC(C5)N6)nc(OCC56CCCN5CC(F)C6)nc4c3F)c12 (centres undefined) + CNC(=O)c1ccc(Nc2nc(OC3CCCC3)c3c(-c4ccc5nc(C)oc5c4)c[nH]c3n2)c(OC)c1 yields viability, T/C of 99.5
